target: IL16_4, Q14005; test: holdup assay; design: key: below the threshold = too weak to quantify, mostly under pKd 3.1 to 4; details: plain residues with an end cap or a label only (N-terminal biotin on a linker: ado-ado)
Sequence (Q14005 1229-1329): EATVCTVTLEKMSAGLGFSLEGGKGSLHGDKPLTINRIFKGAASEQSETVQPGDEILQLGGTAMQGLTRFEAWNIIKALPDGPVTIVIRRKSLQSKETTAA
MEASURED PROPERTY: pKd

{"BINDER": "EDLTKNHDEL [RCN1, Q15293]", "REPORTED MEASUREMENT": "below the threshold"}
{"BINDER": "GFGEERESIL [KIDINS220, Q9ULH0]", "REPORTED MEASUREMENT": 3.74}
{"BINDER": "TETASVCTKV [SLC23A1, Q9UHI7]", "REPORTED MEASUREMENT": 3.55}
{"BINDER": "QKNKDKEYYV [NRXN3_rs746444206, Q9Y4C0]", "REPORTED MEASUREMENT": "below the threshold"}
{"BINDER": "EEPEERHTEL [CES2, O00748]", "REPORTED MEASUREMENT": "below the threshold"}
{"BINDER": "FVHPILQSAV [PRKCA, P17252]", "REPORTED MEASUREMENT": "below the threshold"}
